# Study system: T1, ZFP SBS#996 (synthetic)
# T1 chain: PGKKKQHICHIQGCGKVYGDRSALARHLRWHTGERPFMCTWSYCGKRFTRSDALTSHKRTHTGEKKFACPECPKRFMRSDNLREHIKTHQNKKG
# Measurement protocol: EMSA
# Run parameters: tags: MBP fusion
Observed property: Kd (nM)
Response body: numeric value in nM, unit text excluded.

The recorded Kd for entry CAGTTGGTC (dsDNA) DNA 1: CAGTTGGTC DNA 2: GACCAACTG equals 9.6

Where these numbers come from: patent US20030068675
